Would you mind telling me the reported MCPI production in PBMC of each entry?
System: MCP-1
Assay: MCP-1 chemokine induction in human PBMCs, ELISA (Tables 6, 7; FIGS. 6-9, 13)
Type: cell-based
Conditions: SPOT synthesized control peptides, determined as in Table 6; Table 7
Respond with the figure and its unit, in that order.

Use these answered entries as a reference point.
[
  {
    "Substance": "C46 (IQIWIIRVIWRW) [Peptide C46]",
    "Assay Value": "697 pg/mL"
  },
  {
    "Substance": "C36 (KRIKKLLKVVLK) [Peptide C36]",
    "Assay Value": "719 pg/mL"
  }
]

Then there is this substance:
// query MCPI production in PBMC value for entry C11 (KAVKKGRRAIVV) [Peptide C11]
197 pg/mL

====

Would you mind telling me the reported MIC (μM) MHB of each entry?
System: planktonic methicillin resistant S. aureus
Experiment: microbe, parasite or virus in culture
Type: cell-based, Staphylococcus aureus
Settings: planktonic methicillin resistant
No end group written: not given here.
Answers are plain numbers, in µM.

Use these answered entries as a reference point.
[
  {
    "Substance": "WQGWAKIWVVRI-NH2 [Peptide 3019, WQGWAKIWVVRI]",
    "Scale Unit": "µM",
    "Assay Value": 8
  },
  {
    "Substance": "ILVRWIRWRIQW-NH2 [Peptide 3002, ILVRWIRWRIQW]",
    "Scale Unit": "µM",
    "Assay Value": 2
  },
  {
    "Substance": "KIVIRIILQVIK-NH2 [Peptide 3015, KIVIRIILQVIK]",
    "Scale Unit": "µM",
    "Assay Value": 64
  }
]

// query MIC (μM) MHB value for entry LIVIQLLKKWWK-NH2 [Peptide 3020, LIVIQLLKKWWK]
8

Values were extracted from patent US20210138025A1.
